target: Rv2671 (Mycobacterium tuberculosis); assay: X-ray cocrystal structure; assay type: biochemical
parameter: IC50 (nM)

- compound: "COc1cc(NCc2ccc3nc(N)nc(N)c3c2C)cc(OC)c1OC [TMQ, trimetrexate]"
  numeric.result: 280
